system: morphine; experiment: Precipitated Withdrawal Jumping Test (morphine antagonism in morphine-dependent mice); assay type: in vivo; details: morphine-dependent mice
observable: precipitated withdrawal effect (in words)

CC(O)CN1CCC2(C)c3cc(O)ccc3CC1C2C (single isomer, unassigned; (-)) [Compound D] ... considerable activity
C[C@H]1[C@H]2Cc3ccc(O)cc3[C@]1(C)CCN2CC1CC1 [Cyclazocine, reference compound] ... inactivity
CC1C2Cc3ccc(O)cc3C1(C)CCN2CC(C)(C)O (single isomer, unassigned; (-)) [Compound B] ... inactivity
CCC12CCN(CC(C)O)C(Cc3ccc(O)cc31)C2C (single isomer, unassigned; (-)) [Compound C] ... considerable activity
